System: Clostridium perfringens
Experiment: Prodrug activation in Clostridium perfringens assessed as prednisolone release under anaerobic conditions at 50 uM up to 24 hrs by HPLC analysis
Format: organism-based
readoutLabel: Drug metabolism

{"molecule": "C[C@]12C=CC(=O)C=C1CC[C@@H]1[C@@H]2[C@@H](O)C[C@@]2(C)[C@H]1CC[C@]2(O)C(=O)COC(=O)CCc1ccccc1[N+](=O)[O-]", "Drug metabolism": "Active"}
{"molecule": "C[C@]12C=CC(=O)C=C1CC[C@@H]1[C@@H]2[C@@H](O)C[C@@]2(C)[C@H]1CC[C@]2(O)C(=O)COC(=O)Cc1ccccc1[N+](=O)[O-]", "Drug metabolism": "Active"}
{"molecule": "CCCC1O[C@@H]2C[C@H]3[C@@H]4CCC5=CC(=O)C=C[C@]5(C)[C@H]4[C@@H](O)C[C@]3(C)[C@]2(C(=O)COC(=O)Cc2ccccc2[N+](=O)[O-])O1 (stereo not given in full)", "Drug metabolism": "Active"}
{"molecule": "CCCC1O[C@@H]2C[C@H]3[C@@H]4CCC5=CC(=O)C=C[C@]5(C)[C@H]4[C@@H](O)C[C@]3(C)[C@]2(C(=O)COC(=O)CCc2ccccc2[N+](=O)[O-])O1 (stereo not given in full)", "Drug metabolism": "Not Active"}

Qu. Consider the molecule shown here: C[C@]12C=CC(=O)C=C1CC[C@@H]1[C@@H]2[C@@H](O)C[C@@]2(C)[C@H]1CC[C@]2(O)C(=O)COC(=O)CCc1ccccc1 What is its recorded Drug metabolism?
Ans. Not Active

###

Tested on: Caco-2
Assay: Apparent permeability from apical to basolateral side of human Caco2 cells
Format: ADME, cell-based
readoutLabel: Papp

{"compound": "Cc1ccc(-c2cc(C(F)(F)F)nn2-c2ccc(S(=O)(=O)NC(=O)Cc3ccccc3[N+](=O)[O-])cc2)cc1", "resultValue": "permeable"}
{"compound": "CCCC1O[C@@H]2C[C@H]3[C@@H]4CCC5=CC(=O)C=C[C@]5(C)[C@H]4[C@@H](O)C[C@]3(C)[C@]2(C(=O)COC(=O)Cc2ccccc2[N+](=O)[O-])O1 (some centres undefined)", "resultValue": "permeable"}
{"compound": "Cc1ccc(-c2cc(C(F)(F)F)nn2-c2ccc(S(=O)(=O)NC(=O)CCc3ccccc3[N+](=O)[O-])cc2)cc1", "resultValue": "permeable"}
